Items are presented alongside their recorded protein stability index.
B1: ALDH8A1 (parent)
chain: FTGSQPTAERITQLSAPHCKKLSL

Variants of: B1
procedureDetails: protein stability index of a GFP-peptide fusion (GPS, HEK-293T) (PSI 1-6); higher = more stable;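 also: lentivirally expressed fusions sorted by FACS into six bins by GFP to DsRed ratio, PSI derived from sequencing read proportions per bin multiplied by bin number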
conditionNotes: c terminus: a fixed tail appended
// no unit string in output, number only

// below: answered variants
mutationLabel	protein stability index
S15R	1.71
Q13I	1.35
Q13C	2
L24E	2.96
G3R	2.71
P6S	2.1
L24P	2.9
S23P	2.33
T2F	2.89
P6I	2.07

Now examine the next entry.
**Q:** Any idea what protein stability index was measured for `E9W` ?
**A:** 3.33
